Values were extracted from the supplement of paper PMC11208160.

Entries and their recombinant UMI read abundance (log10)
Test: recombinant UMI read abundance after kanamycin selection (control-corrected) (log10(CPM+1)); higher = more efficient recombination; extreme values may be limits of the assay; sequences stand for … in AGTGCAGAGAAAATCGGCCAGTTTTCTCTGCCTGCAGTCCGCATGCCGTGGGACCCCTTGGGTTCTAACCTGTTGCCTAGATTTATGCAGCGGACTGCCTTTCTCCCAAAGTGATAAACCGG…AGGTTGGTTTCACT; site = the 11-nt donor;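 also: IS621 bridge recombinase in Escherichia coli cells against a fixed T5 target plasmid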
API note: the answer field is a bare number with no unit suffix.

Examples with answers:
# sequenceChain, recombinant UMI read abundance (log10)
data = [
    ("CACACCTCATGGACCGGTTTTCCCGGTAATCCGTATTTGCC (site CACACCTCTGG)", 2.87),
    ("GTGTAGGCATGGACCGGTTTTCCCGGTAATCCGTATTTGGC (site GTGTAGGCTGC)", 2.67),
    ("CTGTTTACATGGACCGGTTTTCCCGGTAATCCGTATTTGCT (site CGGTTTACTAG)", 0),
    ("AGGAACACATGGACCGGTTTTCCCGGTAATCCGTATTTGCA (site AGGAACACTTG)", 2.52),
    ("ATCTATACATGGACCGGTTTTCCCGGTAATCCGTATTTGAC (site ATCTATGCTGT)", 0),
    ("TGTTCGCCATGGACCGGTTTTCCCGGTAATCCGTATTTGTA (site TGTTCTCCTTA)", 0),
    ("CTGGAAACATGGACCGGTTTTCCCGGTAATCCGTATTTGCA (site CTGGAATCTTG)", 1.21),
    ("GCTTGGCCATGGACCGGTTTTCCCGGTAATCCGTATTTGAT (site GCTTGGCCTAT)", 0),
]

# input sequence: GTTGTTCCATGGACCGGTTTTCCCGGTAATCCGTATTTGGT (site GTTGTTCCTAG) ; wanted: its recombinant UMI read abundance (log10)
0
